Sodium-dependent serotonin transporter (Homo sapiens, UniProt P31645) data, read-out Ki
Sequence (P31645 whole entry): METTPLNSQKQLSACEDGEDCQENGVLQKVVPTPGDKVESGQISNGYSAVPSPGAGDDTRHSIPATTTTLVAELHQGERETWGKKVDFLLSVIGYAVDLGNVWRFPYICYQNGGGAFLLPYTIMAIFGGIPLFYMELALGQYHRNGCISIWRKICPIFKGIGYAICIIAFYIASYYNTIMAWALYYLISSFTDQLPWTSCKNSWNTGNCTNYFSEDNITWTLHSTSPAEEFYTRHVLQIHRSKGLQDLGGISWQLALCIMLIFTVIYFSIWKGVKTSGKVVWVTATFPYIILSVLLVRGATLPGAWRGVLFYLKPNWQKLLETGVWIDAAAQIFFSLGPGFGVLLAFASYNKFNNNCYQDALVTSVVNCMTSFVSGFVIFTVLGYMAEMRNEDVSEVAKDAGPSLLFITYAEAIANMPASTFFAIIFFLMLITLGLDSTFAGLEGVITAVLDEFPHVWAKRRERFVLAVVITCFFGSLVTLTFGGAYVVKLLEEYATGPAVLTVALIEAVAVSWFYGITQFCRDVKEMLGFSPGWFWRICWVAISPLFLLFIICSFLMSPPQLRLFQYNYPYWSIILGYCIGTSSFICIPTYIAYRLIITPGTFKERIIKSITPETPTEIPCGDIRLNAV
value_kind: Ki (nM)

Sample answers from the record:
smiles_entry: CCC(CC)N(Cc1ccccc1C(F)(F)F)C1CCNCC1
Ki / nM: 6.8

smiles_entry: CC(C)CN(Cc1ccccc1OC(F)(F)F)C1CCNCC1
Ki / nM: 2.2

smiles_entry: FC(F)(F)c1ccccc1CN(CC1CC1)C1CCNCC1
Ki / nM: 1.5

a = CC(C)CN(Cc1ccc(C(F)(F)F)cc1)C1CCNCC1
b = FC(F)(F)c1ccccc1CN(C1CCCC1)C1CCNCC1
Qu. Between a and b , whose recorded Ki is greater? // output: label of the selected item
Ans. b

a = COCCCN(Cc1ccccc1C(F)(F)F)C1CCNCC1
b = COc1ccccc1CN(CC(C)C)C1CCNCC1
Qu. Between a and b , whose recorded Ki is greater? // output: label of the selected item
Ans. b
(b: 15 nM, a: 2.2 nM)
